- Test system: Escherichia coli TOP10;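 also: peptides expressed intracellularly from a pBAD plasmid library in pooled LB shake-flask culture, induced with 0.3% L-arabinose, DNA abundance read by NGS, three biological replicates, DESeq2 with apeglm shrinkage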
- Test: shrunken log2 fold change of peptide-encoding DNA abundance (4.5 h post-induction vs induction); higher = less antimicrobial activity (less host growth inhibition)
- Condition Summary: time post-induction: 4.5 h; library: site-saturation at positions 5, 18, 19, 20
Recorded shrunken log2 fold change values for a group of sequences are listed next.

Sequence Data	shrunken log2 fold change
RRIRTRPPRLPRPRPRPCGDPRP	0.176
RRIRRRPPRLPRPRPRPYYEPRP	-0.572
RRIRYRPPRLPRPRPRPCLAPRP	-0.838
RRIRMRPPRLPRPRPRPVLPPRP	-0.0643
RRIRLRPPRLPRPRPRPDVNPRP	-0.137
RRIRPRPPRLPRPRPRPCCPPRP	-0.377
RRIRHRPPRLPRPRPRPMCNPRP	-0.186
RRIRVRPPRLPRPRPRPYTSPRP	-0.0679
RRIRDRPPRLPRPRPRPKRIPRP	0.133
RRIRRRPPRLPRPRPRPLNTPRP	-0.244
RRIRMRPPRLPRPRPRPHTFPRP	-0.384
RRIRGRPPRLPRPRPRPINTPRP	-0.4
RRIRARPPRLPRPRPRPYSHPRP	-0.171
RRIRQRPPRLPRPRPRPMSNPRP	0.0758
RRIRSRPPRLPRPRPRPGQDPRP	-0.329
